Test system: hN + hpA co-culture (H1 iNGN2 human neurons + human primary astrocytes);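 also: immunostained co-cultures imaged by high-content microscopy, Z-score per plate against mean and SD of 0.1% DMSO wells, compounds added on differentiation day 18, analysed day 21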
Experiment: presynaptic density (SYNAPSIN1 puncta per MAP2 neurite area), Z-score vs DMSO controls; higher = more presynaptic puncta (synapse-promoting)
Settings: 3 µM; 72 h
Structures can show the parent of a compound that is named as a salt.
READOUT_NAME: presynaptic density (Z-score)
Please give only the number in your answer, with no unit.

Previously resolved entries follow.
- MOLECULE: "CC(C)OC(=O)OCOP(=O)(CO[C@H](C)Cn1cnc2c(N)ncnc21)OCOC(=O)OC(C)C [Tenofovir Disoproxil Fumarate]"
  presynaptic density (Z-score): 0.611
- MOLECULE: "C1=N/C2=N/c3ccc(OCCN4CCCC4)c(c3)COC/C=C/COCc3cccc(c3)C(=C1)N2 [Pacritinib (SB1518)]"
  presynaptic density (Z-score): -1.08
- MOLECULE: "CC1(C)CCC(c2ccc(Cl)cc2)=C(CN2CCN(c3ccc(C(=O)NS(=O)(=O)c4ccc(N[C@H](CCN5CCOCC5)CSc5ccccc5)c(S(=O)(=O)C(F)(F)F)c4)cc3)CC2)C1"
  presynaptic density (Z-score): 0.29
- MOLECULE: "CC1C(=O)OC2C(O)C34C5CC(C(C)(C)C)C36C(OC(=O)C6O)OC4(C(=O)O5)C12O (stereo not given) [Ginkgolide B]"
  presynaptic density (Z-score): -0.504
- MOLECULE: "Cc1cnc(NC(=O)Nc2cc(Br)c(C)cc2OC[C@@H]2CNCCO2)cn1"
  presynaptic density (Z-score): -0.602

Prompt line: Any idea what presynaptic density (Z-score) was measured for O=C(Nc1cc(C(F)(F)F)cc(C(F)(F)F)c1)c1cc(Cl)ccc1O ?
Response line: -3.05

Prompt line: Please give the measured presynaptic density (Z-score) for this molecule: CN1CCC(CNc2ccc3ncc(-c4cccc(OC(F)(F)F)c4)n3n2)CC1
Response line: -2.44

Prompt line: Sample C[C@@H]1C(=O)O[C@H]2C[C@@]34[C@H]5C[C@@H](C(C)(C)C)[C@]36[C@@H](OC(=O)[C@@H]6O)O[C@@]4(C(=O)O5)[C@]21O — what was its presynaptic density (Z-score)?
Response line: -0.498

Prompt line: Name the reported presynaptic density (Z-score) value associated with the molecule CO[C@H]1C[C@@H]2CC[C@@H](C)[C@@](O)(O2)C(=O)C(=O)N2CCCC[C@H]2C(=O)O[C@H]([C@H](C)C[C@@H]2CC[C@@H](OCCO)[C@H](OC)C2)CC(=O)[C@H](C)/C=C(\C)[C@@H](O)[C@@H](OC)C(=O)[C@H](C)C[C@H](C)/C=C/C=C/C=C/1C [Everolimus (RAD001)]
Response line: -1.63

Prompt line: Field request: presynaptic density (Z-score) | item: CCN(Cc1ccncc1)C(=O)C(CO)c1ccccc1 (stereo not given) [Tropicamide]
Response line: -0.597
